// reported viability, T/C for each item listed
System: 885724-159-R-J1-PDC complex spheroid viability
Test: Anticancer human tumor 885724-159-R-J1-PDC patient-derived pancreatic adenocarcinoma cell line growth inhibition [POLQ]
Details: second compound 0.1 µM; first compound 0.00316 µM; hits give low values
Field: numeric (%). Do not append units.

molecule	assay.target	numeric.value
COc1cccc(OCCCN)c1-c1cc(Nc2cnc(C#N)cn2)n[nH]1 + Nc1ccc(C#CCN(C(=O)Cc2ncc(C(F)(F)F)cc2C(F)(F)F)c2ccc(F)cc2)nn1	885724-159-R-J1-PDC complex spheroid viability	74

Supply viability, T/C value. Item: COc1cccc(OCCCN)c1-c1cc(Nc2cnc(C#N)cn2)n[nH]1 + Cc1cccc(N(C)C(=O)C2C(O)CCN2c2nc(C)cc(C(F)(F)F)c2C#N)c1 78.5

Check the records and state viability, T/C for C=CCn1c(=O)c2cnc(Nc3ccc(N4CCN(C)CC4)cc3)nc2n1-c1cccc(C(C)(C)O)n1 + Nc1ccc(C#CCN(C(=O)Cc2ncc(C(F)(F)F)cc2C(F)(F)F)c2ccc(F)cc2)nn1 106

Give viability, T/C for Cn1ncnc1[C@H]1c2n[nH]c(=O)c3cc(F)cc(c23)N[C@@H]1c1ccc(F)cc1 + Cc1cccc(N(C)C(=O)C2C(O)CCN2c2nc(C)cc(C(F)(F)F)c2C#N)c1 92.9

Assign viability, T/C to the following record: Cn1ncnc1[C@H]1c2n[nH]c(=O)c3cc(F)cc(c23)N[C@@H]1c1ccc(F)cc1 + Nc1ccc(C#CCN(C(=O)Cc2ncc(C(F)(F)F)cc2C(F)(F)F)c2ccc(F)cc2)nn1 90.1

Tell me viability, T/C reported for CC[C@@]1(O)C(=O)OCc2c1cc1n(c2=O)Cc2cc3c(CN(C)C)c(O)ccc3nc2-1 + Cc1cccc(N(C)C(=O)C2C(O)CCN2c2nc(C)cc(C(F)(F)F)c2C#N)c1 93.4

====

Test system: 885724-159-R-J1-PDC complex spheroid viability
Assay: Anticancer human tumor 885724-159-R-J1-PDC cell line growth inhibition [POLQ];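 also: spheroids exposed to compounds for 7 days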
Conditions: second compound 10 µM; first compound 0.0316 µM; hits give low values
API: label(entry) gives criterion met if the entry's viability, T/C is strictly smaller than 80%; on equality or larger values it gives criterion not met.

molecule	class
C=CC(=O)N1CCN(c2nc(=O)n(-c3c(C)ccnc3C(C)C)c3nc(-c4c(O)cccc4F)c(F)cc23)C(C)C1 (centres undefined) + Nc1ccc(C#CCN(C(=O)Cc2ncc(C(F)(F)F)cc2C(F)(F)F)c2ccc(F)cc2)nn1	criterion not met
Cn1ncnc1[C@H]1c2n[nH]c(=O)c3cc(F)cc(c23)N[C@@H]1c1ccc(F)cc1 + Nc1ccc(C#CCN(C(=O)Cc2ncc(C(F)(F)F)cc2C(F)(F)F)c2ccc(F)cc2)nn1	criterion not met
O=C(Nc1ccc(O)c(NS(=O)(=O)c2ccc(F)cc2)c1)c1ccc(-c2ccccc2)cc1 + Cc1cccc(N(C)C(=O)C2C(O)CCN2c2nc(C)cc(C(F)(F)F)c2C#N)c1	criterion not met
CC[C@@]1(O)C(=O)OCc2c1cc1n(c2=O)Cc2cc3c(CN(C)C)c(O)ccc3nc2-1 + Cc1cccc(N(C)C(=O)C2C(O)CCN2c2nc(C)cc(C(F)(F)F)c2C#N)c1	criterion not met
COc1cccc(OCCCN)c1-c1cc(Nc2cnc(C#N)cn2)n[nH]1 + COC1C(OC(N)=O)C(O)C(Oc2ccc3c(O)c(NC(=O)c4ccc(O)c(CC=C(C)C)c4)c(=O)oc3c2C)OC1(C)C	criterion met

Given the entry O=C(Nc1ccc(O)c(NS(=O)(=O)c2ccc(F)cc2)c1)c1ccc(-c2ccccc2)cc1 + Nc1ccc(C#CCN(C(=O)Cc2ncc(C(F)(F)F)cc2C(F)(F)F)c2ccc(F)cc2)nn1 , would its reported viability, T/C be below 80%? criterion not met

Is it true that viability, T/C reported for Nc1ccn(C2OC(CO)C(O)C2(F)F)c(=O)n1 (centres undefined) + COC1C(OC(N)=O)C(O)C(Oc2ccc3c(O)c(NC(=O)c4ccc(O)c(CC=C(C)C)c4)c(=O)oc3c2C)OC1(C)C is less than 80%? criterion met

Please state whether viability, T/C is below 80% for Cn1ncnc1[C@H]1c2n[nH]c(=O)c3cc(F)cc(c23)N[C@@H]1c1ccc(F)cc1 + COC1C(OC(N)=O)C(O)C(Oc2ccc3c(O)c(NC(=O)c4ccc(O)c(CC=C(C)C)c4)c(=O)oc3c2C)OC1(C)C criterion not met

Record Nc1ccn(C2OC(CO)C(O)C2(F)F)c(=O)n1 (centres undefined) + Cc1cccc(N(C)C(=O)C2C(O)CCN2c2nc(C)cc(C(F)(F)F)c2C#N)c1 : is its viability, T/C strictly below 80%? criterion met

====

System: 885724-159-R-J1-PDC complex spheroid viability
Assay: Anticancer human tumor 885724-159-R-J1-PDC cell line growth inhibition [POLQ];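 also: spheroids exposed to compounds for 7 days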
Details: second compound 0.0316 µM; first compound 0.316 µM; hits give low values
reported.property: viability, T/C

The examples below pair each entry with its known result.
molecule	result
CNCc1ccc(-c2[nH]c3cc(F)cc4c3c2CCNC4=O)cc1 + Cc1cccc(N(C)C(=O)C2C(O)CCN2c2nc(C)cc(C(F)(F)F)c2C#N)c1	98.2%
CCc1c2c(nc3ccc(O)cc13)-c1cc3c(c(=O)n1C2)COC(=O)[C@]3(O)CC + COC1C(OC(N)=O)C(O)C(Oc2ccc3c(O)c(NC(=O)c4ccc(O)c(CC=C(C)C)c4)c(=O)oc3c2C)OC1(C)C	29%
CNCc1ccc(-c2[nH]c3cc(F)cc4c3c2CCNC4=O)cc1 + Nc1ccc(C#CCN(C(=O)Cc2ncc(C(F)(F)F)cc2C(F)(F)F)c2ccc(F)cc2)nn1	87.5%
CCc1c2c(nc3ccc(O)cc13)-c1cc3c(c(=O)n1C2)COC(=O)[C@]3(O)CC + Cc1cccc(N(C)C(=O)C2C(O)CCN2c2nc(C)cc(C(F)(F)F)c2C#N)c1	39.9%

Now for another entry.
Tell me its viability, T/C given O=C(Nc1ccc(O)c(NS(=O)(=O)c2ccc(F)cc2)c1)c1ccc(-c2ccccc2)cc1 + Nc1ccc(C#CCN(C(=O)Cc2ncc(C(F)(F)F)cc2C(F)(F)F)c2ccc(F)cc2)nn1 as the entry. 97.4%

====

Test system: 885724-159-R-J1-PDC complex spheroid viability
Assay: Anticancer human tumor 885724-159-R-J1-PDC cell line growth inhibition [POLQ];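 also: spheroids exposed to compounds for 7 days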
Settings: second compound 0.0316 µM; first compound 0.316 µM; hits give low values
reported.property: viability, T/C (%)
Kindly answer with a numeric value in %, unit omitted.

compound	assay.target	reported.property	numeric.value
COc1cc2cc(C(=O)CCC(=O)O)sc2cc1OC + Nc1ccc(C#CCN(C(=O)Cc2ncc(C(F)(F)F)cc2C(F)(F)F)c2ccc(F)cc2)nn1	885724-159-R-J1-PDC complex spheroid viability	viability, T/C	98.3

Look up and report measured viability, T/C for this entry: CCCS(=O)(=O)Nc1ccc(F)c(C(=O)c2c[nH]c3ncc(-c4ccc(Cl)cc4)cc23)c1F + Cc1cccc(N(C)C(=O)C2C(O)CCN2c2nc(C)cc(C(F)(F)F)c2C#N)c1 116

Identify measured viability, T/C associated with CCc1c2c(nc3ccc(O)cc13)-c1cc3c(c(=O)n1C2)COC(=O)[C@]3(O)CC + Nc1ccc(C#CCN(C(=O)Cc2ncc(C(F)(F)F)cc2C(F)(F)F)c2ccc(F)cc2)nn1 33.5

Tell me measured viability, T/C for CC(C)n1c(=O)n(C)c2cnc3cc(F)c(-c4ccc(OCCCN5CCCCC5)nc4)cc3c21 + Cc1cccc(N(C)C(=O)C2C(O)CCN2c2nc(C)cc(C(F)(F)F)c2C#N)c1 please. 99.9

====

Each entry below carries its recorded viability, T/C.
System: 885724-159-R-J1-PDC complex spheroid viability
Test: Anticancer human tumor 885724-159-R-J1-PDC cell line growth inhibition [POLQ];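 also: spheroids exposed to compounds for 7 days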
Conditions: second compound 3.16 µM; first compound 3.16 µM; hits give low values
Use % as the unit, but write only the number.

Worked set:
compound	assay.target	viability, T/C, %
Nc1ccn(C2OC(CO)C(O)C2(F)F)c(=O)n1 (stereo not given) + Nc1ccc(C#CCN(C(=O)Cc2ncc(C(F)(F)F)cc2C(F)(F)F)c2ccc(F)cc2)nn1	885724-159-R-J1-PDC complex spheroid viability	55.8
CC1COCCN1c1cc(C2(S(C)(=N)=O)CC2)nc(-c2ccnc3[nH]ccc23)n1 (stereo not given) + COC1C(OC(N)=O)C(O)C(Oc2ccc3c(O)c(NC(=O)c4ccc(O)c(CC=C(C)C)c4)c(=O)oc3c2C)OC1(C)C	885724-159-R-J1-PDC complex spheroid viability	54.8
COc1ccc([C@@H](O)c2cc(-c3ncnc4cc(N5CCOCC5)ccc34)c(F)cc2Cl)nn1 + Cc1cccc(N(C)C(=O)C2C(O)CCN2c2nc(C)cc(C(F)(F)F)c2C#N)c1	885724-159-R-J1-PDC complex spheroid viability	55.2

Consider the compound CC1COCCN1c1cc(C2(O)CC3CCC(C2)O3)c2cnn(-c3ccn[nH]3)c2n1 (stereo not given) + COC1C(OC(N)=O)C(O)C(Oc2ccc3c(O)c(NC(=O)c4ccc(O)c(CC=C(C)C)c4)c(=O)oc3c2C)OC1(C)C and give its recorded viability, T/C. 31.8

Report measured viability, T/C; entry is O=c1[nH]cc(F)c(=O)[nH]1 + Nc1ccc(C#CCN(C(=O)Cc2ncc(C(F)(F)F)cc2C(F)(F)F)c2ccc(F)cc2)nn1 97.5

Indicate the recorded viability, T/C value for this compound: C#Cc1c(F)ccc2cc(O)cc(-c3ncc4c(N5CC6CCC(C5)N6)nc(OCC56CCCN5CC(F)C6)nc4c3F)c12 (stereo not given) + Cc1cccc(N(C)C(=O)C2C(O)CCN2c2nc(C)cc(C(F)(F)F)c2C#N)c1 40.7

Input CCCS(=O)(=O)Nc1ccc(F)c(C(=O)c2c[nH]c3ncc(-c4ccc(Cl)cc4)cc23)c1F + Cc1cccc(N(C)C(=O)C2C(O)CCN2c2nc(C)cc(C(F)(F)F)c2C#N)c1 , output reported viability, T/C. 151

// Input: CC1COCCN1c1cc(-c2ccnn2C)c2ccnc(-c3ccn[nH]3)c2n1 (stereo not given) + COC1C(OC(N)=O)C(O)C(Oc2ccc3c(O)c(NC(=O)c4ccc(O)c(CC=C(C)C)c4)c(=O)oc3c2C)OC1(C)C . Output its viability, T/C only. 37.8

Report measured viability, T/C; entry is COc1cc(C2c3cc4c(cc3C(OC3OC5COC(C)OC5C(O)C3O)C3COC(=O)C23)OCO4)cc(OC)c1O (stereo not given) + COC1C(OC(N)=O)C(O)C(Oc2ccc3c(O)c(NC(=O)c4ccc(O)c(CC=C(C)C)c4)c(=O)oc3c2C)OC1(C)C 53.5

Tell me measured viability, T/C for CCCS(=O)(=O)Nc1ccc(F)c(C(=O)c2c[nH]c3ncc(-c4ccc(Cl)cc4)cc23)c1F + COC1C(OC(N)=O)C(O)C(Oc2ccc3c(O)c(NC(=O)c4ccc(O)c(CC=C(C)C)c4)c(=O)oc3c2C)OC1(C)C please. 151
